So I've got a bunch of molecules here, and I need their microsomal CLint at 1 μM values.
- EXPERIMENT SUMMARY: Clearance study, liver microsomes (human)
- EXPERIMENTAL SETUP: pH 7.4
The reply should consist of the numeric value with the unit placed after it.

input: Param item = CC(CNC(=O)c1ccc2c(c1)N=C(c1cccc(Cl)c1)c1ccccc1S2)c1ccccc1 (stereo not shown) [drawing 1755] ; retrieve measured microsomal CLint at 1 μM.
output: 56 µL/min/mg

input: Cool, now O=C(NCc1cccc(Cl)c1)c1ccc2c(c1)N=C(c1ccc(Cl)cc1)c1cc(F)ccc1S2 [drawing 1686]
output: 3 µL/min/mg

input: Cool, now O=C(NCc1ccccc1Cl)c1ccc2c(c1)N=C(c1ccccc1)c1ccccc1S2 [drawing 1780]
output: 57 µL/min/mg

input: Cool, now CC(C)CNC(=O)c1ccc2c(c1)N=C(c1ccc(Cl)cn1)c1ccc(F)cc1S2 [drawing 1746]
output: 25 µL/min/mg
